Species: Mus musculus
Experiment: Tested for antagonism of nicotine-induced death (D) in mice
Type: functional
Result type: ED50 (mg/kg)
Answers are plain numbers, in mg/kg.

Some solved cases for reference:
>>> value_reported("CN(C)CCc1nnc2n1-c1ccc(Cl)cc1C(c1ccccc1Cl)=NC2")
0.28
>>> value_reported("CN(Cc1nnc2n1-c1ccc(Cl)cc1C(c1ccccc1)=NC2)CC1CC1")
0.6

Could you now look at the following compound, please?
ED50 in this record for C#CCNC(C)c1nnc2n1-c1ccc(Cl)cc1C(c1ccccc1)=NC2 (stereo not drawn) : 1.1

====

Species on record: Mus musculus
Assay: Tested for antagonism of oxotremorine hypothermia (OX) in mice
Assay type: functional
What ED50 was measured for each of the following?

Some solved cases for reference:
>>> value_reported("Clc1ccc2c(c1)C(c1ccccc1)=NCc1nnc(CN3CCN(c4ccccc4)CC3)n1-2")
"> 30 mg/kg"
>>> value_reported("CC(N)Cc1nnc2n1-c1ccccc1C(c1ccccc1)=NC2 (stereo unspecified)")
"> 50 mg/kg"
>>> value_reported("C#CCNCc1nnc2n1-c1ccc(Cl)cc1C(c1ccccc1)=NC2")
"> 50 mg/kg"
>>> value_reported("CN(C)OCc1nnc2n1-c1ccc(Cl)cc1C(c1ccccc1)=NC2")
"> 50 mg/kg"

Value sought for every listed molecule: ED50.
1. C#CCN(C)Cc1nnc2n1-c1ccccc1C(c1ccccc1Cl)=NC2
2. NCCc1nnc2n1-c1ccccc1C(c1ccccc1Cl)=NC2

result:
["> 50 mg/kg", "> 50 mg/kg"]

====

Species: Mus musculus
Test: Tested for potentiation of yohimbine toxicity in aggregated mice(Y)
Type: functional
What ED50 was measured for each of the following?

Some solved cases for reference:
>>> value_reported("C=CCN(C)Cc1nnc2n1-c1ccc(Cl)cc1C(c1ccccc1)=NC2")
"> 50 mg/kg"
>>> value_reported("Clc1ccc2c(c1)C(c1ccccc1)=NCc1nnc(CN3CCN(c4ccccc4)CC3)n1-2")
"> 30 mg/kg"

Could you now look at the following compound, please?
ED50 in this record for "CN1CCN(Cc2nnc3n2-c2ccc(Cl)cc2C(c2ccccc2)=NC3)CC1" : > 100 mg/kg
